MEASURED PROPERTY: Ki

Param item: `CCNC(=O)C(=O)Nc1nc(Nc2ccccc2)c2ncn([C@@H]3O[C@H](CO)[C@@H](O)[C@H]3O)c2n1` ; param system: Adenosine receptor A2b (Homo sapiens, UniProt P29275); output Ki: > 10 µM

Param item: Nc1ccc(CCNc2nc(N)c3ncn(C4OC(CO)C(O)C4O)c3n2)cc1I (stereo not drawn) ; param system: Adenosine receptor A2b (Homo sapiens, UniProt P29275); output Ki: > 10 µM

Param item: `CCn1c(=O)c2[nH]c(-c3ccccc3)nc2n(CC)c1=O` ; param system: Adenosine receptor A2b (Homo sapiens, UniProt P29275); output Ki: 0.0123 µM

Source: BindingDB's records for PubMed 10496952
